Experiment: Apparent permeability of the compound across apical to basolateral sides in human Caco-2 cells at 2 uM measured after 2 hrs by LC-MS/MS analysis
Type: ADME, cell-based
REPORTED_PROPERTY: Papp A→B at 2 h, 2 µM (×10⁻⁶ cm/s)
Numbers only, in ×10⁻⁶ cm/s.

Some solved entries appear below for comparison.
CC[C@@H](NC(=O)c1cn(-c2c(F)cc(F)cc2F)c2nc(N3C[C@@H](O)CC3=O)ccc2c1=O)C(F)(F)F :: 43.4
CC[C@@H](NC(=O)c1cn(-c2c(F)cccc2F)c2nc(N3C[C@@H](O)CC3=O)ccc2c1=O)C(F)(F)F :: 48.2

Below is a list of molecules. For each, state its recorded Papp A→B at 2 h, 2 µM.
1. CC[C@H](NC(=O)c1cn(-c2c(F)cc(F)cc2F)c2nc(N3C[C@@H](O)CC3=O)ccc2c1=O)C(F)(F)F
2. CCC(NC(=O)c1cn(-c2c(F)cc(F)cc2F)c2nc(N3C[C@@H](O)[C@H](O)C3)c(F)cc2c1=O)C(F)(F)C(F)(F)F (single isomer, unassigned; diastereomer 1)
3. O=C(N[C@@H](C1CC1)C(F)(F)F)c1cn(-c2c(F)cc(F)cc2F)c2nc(N3C[C@@H](O)[C@H](O)C3)ccc2c1=O
4. CC(C)(C)C(NC(=O)c1cn(-c2c(F)cc(F)cc2F)c2nc(N3C[C@@H](O)[C@H](O)C3)c(F)cc2c1=O)C(F)(F)C(F)(F)F (single isomer, unassigned; diastereomer 2)

Output line:
[46.2, 11.3, 12.9, 6]
